Molecular target: T1, DD(E) fragment of fibrin
T1 chain 1: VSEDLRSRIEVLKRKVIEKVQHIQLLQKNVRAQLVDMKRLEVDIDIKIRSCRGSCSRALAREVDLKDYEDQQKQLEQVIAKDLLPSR
T1 chain 2: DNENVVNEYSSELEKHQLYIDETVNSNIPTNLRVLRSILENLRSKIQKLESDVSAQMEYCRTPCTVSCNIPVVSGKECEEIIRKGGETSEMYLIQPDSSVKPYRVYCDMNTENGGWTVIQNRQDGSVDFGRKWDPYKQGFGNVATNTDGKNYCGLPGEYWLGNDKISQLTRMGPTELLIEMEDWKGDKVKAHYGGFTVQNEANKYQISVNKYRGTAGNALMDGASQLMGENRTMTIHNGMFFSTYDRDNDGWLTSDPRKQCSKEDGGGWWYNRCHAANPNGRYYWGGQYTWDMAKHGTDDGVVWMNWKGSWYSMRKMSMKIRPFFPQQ
T1 chain 3: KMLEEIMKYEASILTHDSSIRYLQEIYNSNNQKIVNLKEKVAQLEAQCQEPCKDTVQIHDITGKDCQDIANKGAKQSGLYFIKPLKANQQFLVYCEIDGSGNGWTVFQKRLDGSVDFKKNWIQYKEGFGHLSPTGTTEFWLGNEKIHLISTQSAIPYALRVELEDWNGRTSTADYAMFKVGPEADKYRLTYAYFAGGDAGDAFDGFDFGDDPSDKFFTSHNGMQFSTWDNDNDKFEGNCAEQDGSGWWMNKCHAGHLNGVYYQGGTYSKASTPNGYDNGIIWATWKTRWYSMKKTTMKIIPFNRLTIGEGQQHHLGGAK
T1 chain 4: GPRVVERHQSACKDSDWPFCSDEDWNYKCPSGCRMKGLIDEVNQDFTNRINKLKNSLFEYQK
T1 chain 5: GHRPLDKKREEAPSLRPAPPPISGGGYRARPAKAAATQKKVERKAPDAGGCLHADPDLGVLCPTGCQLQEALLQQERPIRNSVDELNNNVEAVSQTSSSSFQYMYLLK
T1 chain 6: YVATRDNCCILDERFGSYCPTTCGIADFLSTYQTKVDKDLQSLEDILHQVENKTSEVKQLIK
Experiment: affinity to DD(E) fragment of fibrin
Starred links: 1 amine or outer side, 2 acyl side, 3 side chain; linkers in the order of their positions; H or OH if unused. Positions of bridges follow the written chain, without caps; N, C: chain ends. Non-standard residues stand in square brackets, D forms with d. No end group written: not given here. Phe(4-OMe) = COc1ccc(C[C@H](N[*:1])C(=O)[*:2])cc1; Ser(Bzl) = O=C([C@H](COCc1ccccc1)N[*:1])[*:2]; Tyr(3-Cl) = N[C@@H](Cc1ccc(O)c(Cl)c1)C(=O)O; Tyr(3-I) = N[C@@H](Cc1ccc(O)c(I)c1)C(=O)O; Hyp = O=C(O)[C@@H]1C[C@@H](O)CN1
Kindly state Kd for each of the entries shown.

WEC[Hyp][Tyr(3-Cl)]GLCFIQ (disulfide 3-8 (inferred)) [W-E-C-Hyp-Y(3-Cl)-G-L-C-F-I-Q] :: ≤ 200 nM

// each listed binder needs a value for Kd
1. T[dE]C[Hyp][Tyr(3-Cl)]GLCWIQ (disulfide 3-8 (inferred)) [T-(D-E)-C-Hyp-Y(3-Cl)-G-L-C-W-I-Q]
2. WEC[Hyp][Tyr(3-Cl)]GLCYIQ (disulfide 3-8 (inferred)) [W-E-C-Hyp-Y(3-Cl)-G-L-C-Y-I-Q]
3. [Ser(Bzl)]HCPYDLCHIL (disulfide 3-8 (inferred)) [S(Bzl)-H-C-P-Y-D-L-C-H-I-L]
4. FHC[Hyp][Tyr(3-Cl)]FLCHIL (disulfide 3-8 (inferred)) [F-H-C-Hyp-Y(3-Cl)-F-L-C-H-I-L]
5. [Phe(4-OMe)]WC[Hyp][Tyr(3-I)]DLCHI (disulfide 3-8 (inferred)) [F(4-OMe)-W-C-Hyp-Y(3-I)-D-L-C-H-I]

Response:
≤ 200 nM
≤ 300 nM
≤ 400 nM
≤ 500 nM
≤ 500 nM

Values were extracted from patent US20070185311A1.
